Tested on: HCT116
assay.info: cell viability (CellTiter-Glo) relative to plate median (fraction of plate median); higher = more viable cells
details: 5 µM; treatment time 24 h; reporter: TCF4/Wnt
With a cut-off of 1, any cell viability strictly below it is called T; any cell viability meeting it or above is called F.

[ask] Below 1 on cell viability? Entry CN(C)CCN(Cc1cccs1)c1ccccn1
[reply] F

[ask] cell viability under 1? Item: COc1c(C)c2c(c(O)c1C/C=C(\C)CCC(=O)O)C(=O)OC2
[reply] T

[ask] Record CC(=O)NCCc1ccc(O)cc1 [N-(p-Hydroxyphenyl)ethylacetamide] : is its cell viability strictly below 1?
[reply] F

[ask] Is the reported cell viability for CNC[C@H](O)c1ccc(O)c(O)c1 strictly below 1?
[reply] F

[ask] Quick check: cell viability of COc1c2ccoc2c(OC)c2oc(=O)ccc12 under 1?
[reply] T

[ask] In plain terms, does CCCCOC(=O)c1ccc(N)cc1 come in under 1 for cell viability?
[reply] T

[ask] Hello, I'm reviewing records and need to know if cell viability of C[C@H]1C[C@H]2[C@@H]3CCC4=CC(=O)C=C[C@]4(C)[C@@]3(F)[C@@H](O)C[C@]2(C)[C@@]1(O)C(=O)CO is below 1. Could you check?
[reply] F

[ask] Quick check: cell viability of Cc1cc(O)c2c(c1O)C(=O)c1c(O)cc(C)c(O)c1C2=O under 1?
[reply] T

[ask] # check: cell viability < 1 for CC(=O)OC1CCC23CC1(C)CCC2C(C)(C)CC3OC(C)=O (centres undefined)
[reply] F

[ask] Consider the molecule CN(C)c1ccc(C(=C2C=CC(=[N+](C)C)C=C2)c2ccc(N(C)C)cc2)cc1 . Is its cell viability strictly less than 1?
[reply] T

[ask] cell viability strictly < 1 for this molecule? Cc1ncc([N+](=O)[O-])n1CCO
[reply] F
